assay: soluble on expression in E. coli; label from the status in PepcDB or PDB records
measurementName: soluble on expression in E. coli

1) MEDRNNIYFFYKHTKSMQEAVEPLKQLATSQGLNVVDDVQKANIIVSVGGNNAFLQATRKTNFRSDCLYVGVSTDREGFYPDFTINEIDKMFEAFENQNIEVKRLSTLEVTIDDEKPFYCLNECSIRSNVIKTFVLEVFIDDMHFETFRGDGMIVSTPTGSTAYNKSVRGAVVDPRLPSLQVSEIASLNNNTYRTLGTSFLLSGDRTLRLKVVQDGNDFPIIGADNEALSIRHAEDIKIRLSDKQVKVLKLKDNTFWHKVQRNFLLEHHHHHH = soluble
2) MIRVCNQIGIPYYAVNFEKQYYEKVFQYFLDEYKAGRTPNPDVLCNKEIKFKAFLEHALSLGADYLATGHYARVDRSGGKVRMLRGIDENKDQTYFLNQLTEDTLSKVMFPIGELQKSRVREIAKEAELATATKKDSTGICFIGERNFKTFLSQYLPAQPGDMMTMDGEVKGRHDGLMYYTIGQRHGLGIGGSGEPWFAVGKDLEKNILYVDQGFHNPLLYSDKITATNISWVRSDIMKGEEISCTAKFRYRQEDHKVTVRMTGEGEAEVIFDEQVRAVTPGQAVVFYDGEECLGGGTIDDVYKDGTKLWYV = not soluble
3) MHCNDGGPATLGLFSDSDLQQPARVEVLGPQSRVLRGFALPWVEALLPQLDAVLAAAPFRQMQTPGGFTMSVGLSSCGQLGWTTDRSGYRYSPIDPQSQRPWPALPKVFQELAEAAAEAAGFPGFAPDSCLINCYRPGAKMSLHQDKNERDYSAPIVSLSLGLPAIFLFGGRQRSDKSQRVALLHGDVVVWGGVDRLRYHGVLALKDGHHPLLGQQRINLTLRRAGLEHHHHHH = not soluble
4) MGHHHHHHSHMGNNSESKGSASDSKGAETFTYKAENGNVKIPKHPKRVVVMADGYYGYFKTLGINVVGAPENVFKNPYYKGKTNGVENIGDGTSVEKVIDLNPDLIIVWTTQGADIKKLEKIAPTVAVKYDKLDNIEQLKEFAKMTGTEDKAEKWLAKWDKKVAAAKTKIKKAVGDKTISIMQTNGKDIYVFGKDFGRGGSIIYKDLGLQATKLTKEKAIDQGPGYTSISLEKLPDFAGDYIFAGPWQSGGDDGGVFESSIWKNLNAVKNGHVYKMDPIGFYFTDPISLEGQLEFITESLTK = soluble
5) MITLGFMSLSRQHEADYSAELAKRAPEFGIRFIRFTPFDISPDTLRVKASVYHSASSTWNETEMAIPDYIYDRCFYGKDSHSQKAKPIVEWLKKYPKTEFIGRGLPDKWTVLHDLQQHSVINPYIPETIKVSRYEQIHSFLSKEKACILKPAFGAGGRGVILLKLGKKNITATYHIGKDKQTKTFSNQTSFKTWCKKVLQHQYLLQPYLNIQDKEQYPCDIRLFMEKNEAGEWNTVGKAVRRGYKHGLLANLSGGSDALTFDSWFEDIPKKQQVVLLDDVFSITQSVPYYLDERYGPLFELGLDICLAKDGRIWILDINSKPGRKSILRVSPEQKEQLYTCPLKRCQYLFSEQSQKGVLPRES = not soluble

Exercise: Which soluble on expression in E. coli value belongs to MGRDSPRDRRHRDRSPERRRRSRSRSRDRQTRRDTRRDDSPKIKREVKEEQFSDNDSPRRRRDDRGGRRDDRRDNRRDDRRDHRDDRGDRDRRDNFRRPDPVREDGKQYGLEKKEENWGKPEEPAKEKEKVNLGTSGALTEDTNTFRGVVIKYNEPPEAKKPNARWRLYPFKGEESLQVLYIHRQSAYLIGRDHKIADIPVDHPSCSKQHAVLQFRSMPFTRDDGTKARRIMPYIIDLGSGNGTFLNEKKIEPQRYIELQEKDMLKFGFSTREYVVMKEREITEEELAEGEDVKKEESD ?
Solution: not soluble

Exercise: Endpoint output: soluble on expression in E. coli of MTQETFTATTRVKRGLADMLKGGVIMDVVTPEQARIAEDAGASAVMALERVPADIRAQGGVARMSDPDLIEGIVNAVSIPVMAKARIGHFVEAQILESLGVDFIDESEVLSPADYVNHIDKWNFDVPFVCGATNLGEALRRITEGAAMIRSKGEAGTGDVSEAVKHLRTIRGEINRLRSMDEDQLYVAAKEIQAPYDLVREVAATGKLPVTLFVAGGVATPADAALVMQMGAEGVFVGSGIFKSGNPAARAAAIVKATTMYDDPAAIAEVSRGLGEAMVGINVADVPAPHRLAERGW . Value?
Solution: not soluble

Exercise: Quick one: soluble on expression in E. coli of MASMTGGQQMGRGMAGPEIVKLKKILREKAVPPGTEVPLDVMRKGMEKVAFKAADDIQVEQVTVAGCAAEWVRAPGCQAGKAILYLHGGGYVMGSINTHRSMVGEISRASQAAALLLDYRLAPEHPFPAAVEDGVAAYRWLLDQGFKPQHLSISGDSAGGGLVLAVLVSARDQGLPMPASAIPISPWADMTCTNDSFKTRAEADPMVAPGGINKMAARYLNGADAKHPYASPNFANLKGLPPLLIHVGRDEVLLDDSIKLDAKAKADGVKSTLEIWDDMIHVWHAFHPMLPEGKQAIVRVGEFMREQWAALAAALEHHHHHH ?
Solution: soluble

Exercise: Fill in the blank: the reported soluble on expression in E. coli of MKMFLAQKGVPFEFVNAREDEEARKKVTALAGSPTAGVVLEWEGGTEVIRGVSPASLHAWLARYRGKEA is ____.
Solution: soluble

Exercise: What measured soluble on expression in E. coli goes with MGSDKIHHHHHHKRQVSGDEAYLQASPLSELHAPAGMILPIQVGDYNIPVANSTGAVGKALDIRPPAQPLALVSGARTQFNGDTATLMVENGRSGSLWAQVTSILQAKNYVIAKRDDASQTLNTDWVEWNRLDEDQQYRGRYQISVKPQGYQQAVVVKLVNLEQAGKPVADPASLQRYSTAMLNVISEGLDMNATSAQNAAQRSAGATFDVQSAADDTGLPMLVVRAPFNLVWQRLPGALEKVGMKVTDSTRSQGSMALTYKPLSDSSWQELGARDPQLVSGDYKLQVGDLDNRSSLQFIDPKGHTLTQSQNDALVAVFQAAFNK ?
Solution: not soluble

Exercise: Item MSPQESRRLSIQRCIQSLVHACQCRNANCSLPSCQKMKRVVQHTKGCKRKTNGGCPVCKQLIALCCYHAKHCQENKCPVPFCLNIKHK has what recorded soluble on expression in E. coli?
Solution: soluble

###

assay: soluble on expression in E. coli; label from the status in PepcDB or PDB records
measurementName: soluble on expression in E. coli

1. GPGSMMLQPWLRRGSGATQKYVNGEFKDVPQGDALLVCVPEAHTWFSLHKMLCDPECRRRYPYTQSKKELILRIRRFLNDTLVDQIPALASVQRALEELSFMQPPSDTEAKFKSSLTIEQVPRIMAAVEASRTHSWEDVANTFAAMLKDPRIKNEDAMRMARIFDEMFAENERPK = not soluble
2. MGSDKIHHHHHHVRFCCHHDWLYGVLHLPQQPVTRGVLIVVGGPQYRVGSHRQFVLLARYLAERGIAVMRFDFRGMGDSDGEIRTFEHVGEDLRSAADFFFSECPFLEDIVIWGLCDAASAALFHAHQDSRVSGLVLLNPWVRTEQGIAKAYLKHYYLERLFDPEFWKKLLGGKFNPLASIRSLYEFGRNSLRGGKSPAVSEKSAGSACDLTVPLPERMLDGLKRFQGKILIITSGNDLTAREFLDLVDSSADWQATLRTKQTELCHMESANHTFSTREWRDQVTELTANRVLSW = not soluble

###

assay: soluble on expression in E. coli; label from the status in PepcDB or PDB records
measurementName: soluble on expression in E. coli

1. ATAAQAERTLPKKYGGRFTVTLIPGDGVGKEITDSVRTIFEAENIPIDWETINIKQTDHKEGVYEAVESLKRNKIGLKGLWHTPADQTGHGSLNVALRKQLDIYANVALFKSLKGVKTRIPDIDLIVIRENTEGEFSGLEHESVPGVVESLKVMTRPKTERIARFAFDFAKKYNRKSVTAVHKANIMKLGDGLFRNIITEIGQKEYPDIDVSSIIVDNASMQAVAKPHQFDVLVTPSMYGTILGNIGAALIGGPGLVAGANFGRDYAVFEPGSRHVGLDIKGQNVANPTAMILSSTLMLNHLGLNEYATRISKAVHETIAEGKHTTRDIGGSSSTTDFTNEIINKLSTMHHHHH = soluble
2. MTGNAKLIDRVSAINWNRLQDEKDAEVWDRLTGNFWLPEKVPVSNDIPSWGTLTAGEKQLTMRVFTGLTMLDTIQGTVGAVSLIPDALTPHEEAVLTNIAFMESVHAKSYSQIFSTLCSTAEIDDAFRWSEENRNLQRKAEIVLQSYRGDEPLKRKVASTLLESFLFYSGFYLPMYWSSRAKLTNTADMIRLIIRDEAVHGYYIGYKFQRGLALVDDVTRAELKDYTYELLFELYDNEVEYTQDLYDEVGLTEDVKKFLRYNANKALMNLGYEALFPRDETDVNPAILSALSPNAD = soluble

Where do the numbers come from? From the DeepSol protein solubility set.
